Biological target: Alpha-1B adrenergic receptor (Homo sapiens)
Sequence (P35368 whole entry): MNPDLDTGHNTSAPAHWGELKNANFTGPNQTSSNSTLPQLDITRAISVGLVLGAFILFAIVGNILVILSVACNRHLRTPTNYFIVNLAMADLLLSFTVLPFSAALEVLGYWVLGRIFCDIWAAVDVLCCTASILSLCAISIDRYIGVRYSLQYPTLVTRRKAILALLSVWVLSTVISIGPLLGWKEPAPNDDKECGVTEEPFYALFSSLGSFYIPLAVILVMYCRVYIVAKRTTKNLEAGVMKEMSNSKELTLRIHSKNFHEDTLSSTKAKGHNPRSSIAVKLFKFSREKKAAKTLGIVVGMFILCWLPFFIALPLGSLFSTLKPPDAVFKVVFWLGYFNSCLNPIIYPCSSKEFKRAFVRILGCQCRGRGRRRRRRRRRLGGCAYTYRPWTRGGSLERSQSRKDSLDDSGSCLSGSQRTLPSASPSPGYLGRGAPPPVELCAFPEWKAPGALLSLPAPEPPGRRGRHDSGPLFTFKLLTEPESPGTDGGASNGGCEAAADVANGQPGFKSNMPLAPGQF
Test: In vitro activation of human Alpha-1B receptor expressed in rat-1 fibroblasts via calcium mobilization through the Gq coupled PLC pathway as functional assay

Smiles Structure: c1ccc(-c2cnoc2)c(NCC2=NCCN2)c1
Limit Operator: >
EC50 (µM): 100
--
Smiles Structure: CC/C(=N/OC)c1ccccc1NCC1=NCCN1
Limit Operator: >
EC50 (µM): 5.01
--
Smiles Structure: c1ccc(-c2ncco2)c(NCC2=NCCN2)c1
Limit Operator: =
EC50 (µM): 0.00162
--
Smiles Structure: c1ccc(-c2ccno2)c(NCC2=NCCN2)c1
Limit Operator: =
EC50 (µM): 0.00372
--
Smiles Structure: Cc1ncoc1-c1ccccc1NCC1=NCCN1
Limit Operator: >
EC50 (µM): 100
--
Smiles Structure: Cc1ccc(-c2ccccc2NCC2=NCCN2)o1
Limit Operator: =
EC50 (µM): 0.0468
--
Smiles Structure: CCO/N=C(\C)c1ccccc1NCC1=NCCN1
Limit Operator: >
EC50 (µM): 5.01
--
Smiles Structure: c1ccc(-c2cnco2)c(NCC2=NCCN2)c1
Limit Operator: >
EC50 (µM): 5.01
--
Smiles Structure: c1ccc(-c2ccccc2NCC2=NCCN2)nc1
Limit Operator: =
EC50 (µM): 0.0302
--
Smiles Structure: CO/N=C(\C)c1ccccc1NCC1=NCCN1
Limit Operator: >
EC50 (µM): 5.01
--
Smiles Structure: c1cnc(-c2ccccc2NCC2=NCCN2)nc1
Limit Operator: =
EC50 (µM): 0.0776
--
Smiles Structure: Cc1nc(-c2ccccc2NCC2=NCCN2)no1
Limit Operator: =
EC50 (µM): 0.676
--
Smiles Structure: Cc1cccnc1-c1ccccc1NCC1=NCCN1
Limit Operator: >
EC50 (µM): 100

###

target: Alpha-1B adrenergic receptor (Homo sapiens, UniProt P35368); assay: In vitro activation of human Alpha-1B receptor expressed in rat-1 fibroblasts via calcium mobilization through the Gq coupled PLC pathway as functional assay
pEC50: −log10 of the molar value.
# Lookup of reported pEC50 keyed by entry

Smiles Structure: Cc1nc(-c2ccccc2NCC2=NCCN2)cs1
Limit Operator: =
pEC50: 7.16

Smiles Structure: Cc1ccsc1-c1ccccc1NCC1=NCCN1
Limit Operator: =
pEC50: 6.95

Smiles Structure: c1coc(-c2ccccc2NCC2=NCCN2)c1
Limit Operator: =
pEC50: 8.20

Smiles Structure: Cc1ncc(-c2ccccc2NCC2=NCCN2)o1
Limit Operator: <
pEC50: 5.30

Smiles Structure: Cc1nc(-c2ccccc2NCC2=NCCN2)co1
Limit Operator: <
pEC50: 5.30

Smiles Structure: Nc1nccc(-c2ccccc2NCC2=NCCN2)n1
Limit Operator: <
pEC50: 5.30

Smiles Structure: c1csc(-c2ccccc2NCC2=NCCN2)c1
Limit Operator: =
pEC50: 8.24

Smiles Structure: c1ccc(-c2cnccn2)c(NCC2=NCCN2)c1
Limit Operator: =
pEC50: 6.47

Smiles Structure: Cc1ccc(-c2ccccc2NCC2=NCCN2)s1
Limit Operator: <
pEC50: 4.00

Smiles Structure: Cc1noc(-c2ccccc2NCC2=NCCN2)n1
Limit Operator: <
pEC50: 5.30

Smiles Structure: FC(F)(F)c1cccnc1-c1ccccc1NCC1=NCCN1
Limit Operator: <
pEC50: 4.00

Smiles Structure: CC/C(=N\OC)c1ccccc1NCC1=NCCN1
Limit Operator: <
pEC50: 4.00

Smiles Structure: Cc1cc(-c2ccccc2NCC2=NCCN2)on1
Limit Operator: =
pEC50: 7.02

Smiles Structure: CO/N=C/c1ccccc1NCC1=NCCN1
Limit Operator: <
pEC50: 5.30

meta.source: ChEMBL document CHEMBL1135065
